assay.target: Rac GTPase-activating protein 1 (Homo sapiens)
method.description: blockers of MgcRacGAP-driven Rac1 GTP hydrolysis – biochemical, ADP Hunter fluorescence, primary and confirmatory, confirmation (AID 624330);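 further: fluorescence reports GDP produced by GAP-driven GTP hydrolysis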
condition.notes: MgcRacGAP-stimulated Rac1 GTP hydrolysis, at 30 µM, stronger effect = higher value, GST-tagged Rac1 F28L mutant substrate
The whole screen tested about 340,000 compounds, of which about 2,100 (0.62%) were called active. Only a sample is shown. Results with a measured potency or affinity are listed apart.
Measured inhibition of individual entries
parameter: inhibition (%)

>  <compound>
COc1cccc(CN2CCC(CO)(CC3CCCCO3)CC2)c1 (stereo not given)

>  <recorded.result>
10.7

$$$$
>  <compound>
O=C(COC(=O)c1ccc(F)c(S(=O)(=O)N2CCOCC2)c1)NCc1ccc(Cl)cc1

>  <recorded.result>
-1.94

$$$$
>  <compound>
Cc1cccc(-c2ncc(S(=O)(=O)C(C)(C)C)c(N)n2)c1

>  <recorded.result>
-7.62

$$$$
>  <compound>
O=C1OC(c2ccccc2)=N/C1=C\N1CCCCC1

>  <recorded.result>
-1.27

$$$$
>  <compound>
COc1cc(NC(=O)COC(=O)CNS(=O)(=O)c2ccc(F)c(F)c2F)cc(OC)c1

>  <recorded.result>
9.27

$$$$
